Test system: Hs-578T
test: NCI tumour cell line growth inhibition, 48 h
Calls of active or inactive are those of the source. No stated cut-off is given here; in the data, active = GI50 up to about 1.1 µM and inactive = higher.
parameter: GI50

>>> datavalue("O=C(NNC(=O)c1ccco1)c1ccco1")
"> 100 µM (inactive)"
>>> datavalue("Nc1ccc2c(=S)c3ccccc3[nH]c2c1")
"55.6 µM (inactive)"
>>> datavalue("COC(=O)c1ccccc1Nc1ccccc1C(=O)OC")
"20.8 µM (inactive)"
>>> datavalue("C/C(C=O)=N\\Nc1cc(C)c2ccccc2n1")
"17.3 µM (inactive)"
>>> datavalue("O/N=C1/CCCCC1NO (stereo not given)")
"> 100 µM (inactive)"

* * *

Listing: GI50 of selected compounds
Tested on: TK-10
test: NCI tumour cell line growth inhibition, 48 h
Activity calls are given as the source filed them. Cut-off read from the data, not from the text of the source: active = GI50 up to about 1.1 µM and inactive = higher.
parameter: GI50

>>> datavalue("Fc1ccccc1C1CC(c2ccc3ccccc3c2)=Nc2ccccc2S1 (stereo not drawn)")
"> 100 µM (inactive)"
>>> datavalue("O=C1CCCCC/C1=C\\c1ccc(F)cc1")
"50.8 µM (inactive)"
>>> datavalue("Nc1nc2c3c(ncn3CC(O)CO2)n1 (stereo not drawn)")
"> 100 µM (inactive)"

* * *

In this section, each of the molecules is paired with its reported GI50.
Tested on: RPMI-8226
test: NCI tumour cell line growth inhibition, 48 h
The source made the active and inactive calls. Cut-off read from the data, not from the text of the source: active = GI50 up to about 1.1 µM and inactive = higher.
parameter: GI50

>>> datavalue("CNC(=O)N1CN(c2ccccc2)C2(CCN(CCCC3(c4ccc(F)cc4)OCCO3)CC2)C1=O")
"> 100 µM (inactive)"
>>> datavalue("CCOC(=O)[C@H]1Nc2ccc(Cl)cc2[C@H]2c3ccccc3O[C@H]21")
"45.5 µM (inactive)"
>>> datavalue("N/N=C1/C(=N/O)CCc2nonc21")
"> 100 µM (inactive)"
>>> datavalue("CN1C2=Nc3n(C)c4ccccc4[n+]3CN2c2ccccc21")
"41.1 µM (inactive)"
>>> datavalue("Cc1c(Cl)nc(Nc2nc3ccccc3[nH]2)nc1Cl")
"> 100 µM (inactive)"
>>> datavalue("OC(c1cccnc1Cl)c1nc2ccccc2c2ccnc(Cl)c12 (centres undefined)")
"2.34 µM (inactive)"
>>> datavalue("Cc1ccc2c(c1)C(=O)C1(C2)Cc2c(C)cccc2C1=O (centres undefined)")
"> 100 µM (inactive)"
>>> datavalue("COC(=O)[C@H](CCSC)NC(=O)c1ccc(CNC(=O)/C(C)=C/c2ccccc2)cc1")
"> 100 µM (inactive)"
>>> datavalue("CC(C)(C)c1ccc(NS(=O)(=O)c2ccc(N)cc2)cc1")
"11.6 µM (inactive)"

* * *

System: EKVX
test: NCI tumour cell line growth inhibition, 48 h
Calls of active or inactive are those of the source. Cut-off read from the data, not from the text of the source: active = GI50 up to about 1.1 µM and inactive = higher.
Classes used: active, inactive

>>> discretelabel("COC(=O)c1cc2c3c(cc(NCCN)c2[nH]1)N(C(=O)c1cc2cc(OC)c(OC)c(OC)c2[nH]1)CC3CCl (stereo not given)")
"active"
>>> discretelabel("Nc1ncnc2c1ncc(=O)n2C1CC(O)C(CO)O1 (stereo not given)")
"inactive"
>>> discretelabel("CCOC(=O)/C=C(/C(=O)OCC)n1ccc(N)nc1=O")
"inactive"
>>> discretelabel("Cc1c(C#N)c2nnn(-c3cccc(Cl)c3)c(=O)n2c1-c1ccccc1")
"inactive"
>>> discretelabel("CCCOc1ccc(/C=C/C2=[N+](CCO)CCO2)cc1")
"inactive"
